Attribution: patent US6432984B1

assayed system: CB1 cannabinoid receptors (Homo sapiens)
Sequence (P21554 whole entry): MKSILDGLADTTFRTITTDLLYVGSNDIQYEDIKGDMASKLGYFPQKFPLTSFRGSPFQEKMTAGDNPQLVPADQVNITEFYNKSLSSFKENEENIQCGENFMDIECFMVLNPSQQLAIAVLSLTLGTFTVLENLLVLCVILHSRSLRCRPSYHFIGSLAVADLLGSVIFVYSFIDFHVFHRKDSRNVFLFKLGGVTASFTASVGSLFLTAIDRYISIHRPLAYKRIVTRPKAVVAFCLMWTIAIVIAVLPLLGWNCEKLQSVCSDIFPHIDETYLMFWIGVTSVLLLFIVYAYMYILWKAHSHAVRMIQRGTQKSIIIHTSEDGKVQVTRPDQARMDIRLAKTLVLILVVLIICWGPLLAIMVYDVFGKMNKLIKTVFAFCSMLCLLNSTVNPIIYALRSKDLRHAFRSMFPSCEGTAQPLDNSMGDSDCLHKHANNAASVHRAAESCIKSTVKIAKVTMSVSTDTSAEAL
measurement label: Ki (nM)
Form entry: value (nM) — number only.

Please report the recorded Ki for Cc1c(C(=O)NN2CCCCC2)nn(-c2ccc(Cl)cc2Cl)c1-c1ccc(Br)cc1 [Compound A, reference compound] .
8
